Where do these numbers come from? They come from PubChem BioAssay (NCATS).

Biological target: Calcium and integrin-binding protein 1 (Homo sapiens)
Experiment: Primary qHTS for Identification of Calcium Integrin Binding Protein 1 (CIB1) Competitor (AID 1508620);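 also: GST tagged CIB1 binding a fluorescein labelled alphaIIb integrin peptide tracer; top concentration of the series differs between compounds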
Conditions: CIB1-GST / FITC-alphaIIb peptide fluorescence polarization; series mostly up to 114 µM
Records with an inconclusive call do not appear. The source made the active and inactive calls. Calls follow the shape of the dose curve; as a rule, active = well fitted inhibition curve with a large enough effect; inconclusive = small, poorly fitted or top-dose-only effect; inactive = flat fitted curve, though single readings scatter.

[
  {
    "compound": "COc1ccc(C2c3c(N)nc(CCCc4ccccc4)nc3Oc3ccc4ccccc4c32)cc1OC (stereo not given)",
    "assayed target": "Calcium and integrin-binding protein 1 (Homo sapiens)",
    "outcome": "inactive"
  },
  {
    "compound": "COc1ccc(C2Nc3ccccc3C(=O)N2CCc2ccc(Cl)cc2Cl)cc1COc1ccc(NC(C)=O)cc1 (stereo not given)",
    "assayed target": "Calcium and integrin-binding protein 1 (Homo sapiens)",
    "outcome": "inactive"
  },
  {
    "compound": "CN(C)c1cccc(-c2ncc(F)c(N3CCC(C(N)=O)CC3)n2)c1",
    "assayed target": "Calcium and integrin-binding protein 1 (Homo sapiens)",
    "outcome": "inactive"
  },
  {
    "compound": "COc1cccc(C(=O)Nc2ccc(-c3nc4ccccc4[nH]3)cc2)c1",
    "assayed target": "Calcium and integrin-binding protein 1 (Homo sapiens)",
    "outcome": "inactive"
  },
  {
    "compound": "CCCCNc1nc(C)nc2c1nc(-c1ccccc1)n2CCN1CCCC1",
    "assayed target": "Calcium and integrin-binding protein 1 (Homo sapiens)",
    "outcome": "inactive"
  },
  {
    "compound": "O=C(O)c1ccc(O)c2ncc(N3CCCN(CCCc4ccncc4)CC3)cc12",
    "assayed target": "Calcium and integrin-binding protein 1 (Homo sapiens)",
    "outcome": "inactive"
  },
  {
    "compound": "Cc1ccc(C(=O)NC2CCN(C#N)CC2)cc1",
    "assayed target": "Calcium and integrin-binding protein 1 (Homo sapiens)",
    "outcome": "inactive"
  },
  {
    "compound": "COc1ccc(-c2nnc(NC(=O)Nc3ccc4ccccc4c3)s2)cc1OC",
    "assayed target": "Calcium and integrin-binding protein 1 (Homo sapiens)",
    "outcome": "inactive"
  },
  {
    "compound": "O=C(OCC#CCSc1nnc(-c2cccc3ncccc23)o1)c1ccc(F)cc1",
    "assayed target": "Calcium and integrin-binding protein 1 (Homo sapiens)",
    "outcome": "inactive"
  },
  {
    "compound": "FC(F)(F)c1cccc(N2CCN(C(=S)Nc3cccnc3)CC2)c1",
    "assayed target": "Calcium and integrin-binding protein 1 (Homo sapiens)",
    "outcome": "inactive"
  }
]

====

Test: Quantitative high throughput screen for delayed death inhibitors of the malarial parasite plastid, 48 hour incubation (AID 488752); also: nearly all actives have a fitted effect of over 65% in size
Conditions: Plasmodium falciparum growth; series mostly up to 28.7 µM
Records with an inconclusive call do not appear. Calls of active or inactive are those of the source. Calls come from the whole dose curve; as a rule, active = well fitted inhibition curve with a large enough effect; inconclusive = small, poorly fitted or top-dose-only effect, or effect the other way; inactive = flat fitted curve, though single readings scatter.
Outcome codes: active, inactive

[
  {
    "compound": "CC(=O)O[C@H]1C[C@@H]2CCC3C(CC[C@@]4(C)[C@H]3C[C@H]([N+]3(C)CCCCC3)[C@@H]4OC(C)=O)[C@@]2(C)C[C@@H]1[N+]1(C)CCCCC1 (stereo partly drawn)",
    "category": "inactive"
  },
  {
    "compound": "NC(=S)c1ccc[n+]([C@@H]2O[C@@H](COP(=O)([O-])OP(=O)(O)OC[C@H]3O[C@@H](n4cnc5c(N)ncnc54)[C@H](OP(=O)(O)O)[C@H]3O)C(O)C2O)c1 (stereo partly drawn)",
    "category": "inactive"
  },
  {
    "compound": "CCCNC[C@H](O)COc1ccccc1C(=O)CCc1ccccc1",
    "category": "active"
  },
  {
    "compound": "CCn1c(=O)c2[nH]c(-c3ccccc3)nc2n(CC)c1=O",
    "category": "inactive"
  },
  {
    "compound": "CCCCCCCCCCCCCCC/C=C/[C@@H](O)[C@H](NC(=O)CCCCCCCCCCCCC)OC (tested in a mixture with another compound)",
    "category": "inactive"
  },
  {
    "compound": "CN1C2CCC1CC(NC(=O)c1nn(C)c3ccccc13)C2 (stereo not drawn)",
    "category": "inactive"
  },
  {
    "compound": "CN1C2CC(OC(=O)C(CO)c3ccccc3)CC1C1OC12 (stereo not drawn)",
    "category": "inactive"
  },
  {
    "compound": "N=C1Sc2ccccc2C2=NCCCN12",
    "category": "inactive"
  }
]
